# TEST_SYSTEM: aureolysin (ALN) (Staphylococcus aureus, UniProt P81177)
# Construct: purchased BioCentrum Ltd (Kraków, Poland)
# Sequence (P81177 209-509): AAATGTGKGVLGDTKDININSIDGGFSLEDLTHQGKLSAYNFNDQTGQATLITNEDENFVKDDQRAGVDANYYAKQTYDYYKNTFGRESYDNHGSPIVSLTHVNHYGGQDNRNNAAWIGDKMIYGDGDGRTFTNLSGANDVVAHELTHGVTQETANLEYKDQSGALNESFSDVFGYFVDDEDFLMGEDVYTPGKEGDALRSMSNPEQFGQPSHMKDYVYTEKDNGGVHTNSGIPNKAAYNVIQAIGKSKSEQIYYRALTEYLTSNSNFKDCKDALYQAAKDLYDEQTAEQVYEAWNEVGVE
# EXPERIMENT_SUMMARY: Enzyme inhibition kinetics, fluorogenic substrate ES005
# Type: biochemical
# ASSAY_CONDITIONS: 0.25 h, read-out: vi/v0 avg, Aureolysin; 100 µM inhibitor; 15 min pre incubation
We begin with a simple list: items and their reported remaining activity at 100 µM.
Report as a plain number; the unit % is understood.

                                   compound  unit_info  obs_value
0  CCOC(=O)C(CO)CP(=O)(O)C(Cc1ccccc1)NC(=O)OCc1ccccc1 (stereo not shown)          %       89.9
1  NC(=O)C(CCC(=O)O)NC(=O)C(CCC(=O)O)NC(=O)C(Cc1cc(-c2ccc(-c3cccc(Cl)c3)cc2)no1)CP(=O)(O)c1ccc(Br)cc1 (stereo not shown)          %       88.7
2  CC(NC(=O)OCc1ccccc1)P(=O)(O)CC(Cc1ccccc1)C(=O)O (stereo not shown)          %       90.2

Now look at this one.
Requested field: remaining activity at 100 µM. Item: NC(=O)C(Cc1c[nH]c2ccccc12)NC(=O)C(CCCc1ccccc1)CP(=O)(O)C(Cc1ccccc1)NC(=O)OCc1ccccc1 (stereo not shown)
41.5

Data credit: paper PMC12316308
